assay: Body weight of mice after injection of LNP-formulated luciferase saRNA; assay type: in vivo; settings: Day 15, intramuscular, 1 μg luciferase saRNA in LNP
value.kind: Weight

Recorded Weight of CCCCCCCCCCC(O)CN(CCN1CCN(CCN(CC(O)CCCCCCCCCC)CC(O)CCCCCCCCCC)CC1)CCN(CC(O)CCCCCCCCCC)CC(O)CCCCCCCCCC (stereo not shown) [Compound C12-200, reference compound] , please. 30.16 g

Requested read-out: Weight. Entry: CCCCCCCCCCCCCCOC(=O)CCN(CCC(=O)OCCCCCCCCCCCCCC)CCN1CCN(CCN(CCC(=O)OCCCCCCCCCCCCCC)CCC(=O)OCCCCCCCCCCCCCC)CC1 [Comparator 1, reference compound] 29.43 g

Suppose we examine the molecule CCCCCCC(CCCC)C(=O)OCCCCN(CCCCOC(=O)C(CCCC)CCCCCC)CCN1CCN(CCOC(=O)C(CCCC)CCCCCC)CC1 (stereo not shown) [Compound 8-41] ; what Weight value has been reported? 30.24 g

Form field: reported Weight of CCCCCCC(CCCC)C(=O)NCCN1CCN(CCN(CCCCOC(=O)C(CCCC)CCCCCC)CCCCOC(=O)C(CCCC)CCCCCC)CC1 (stereo not shown) [Compound 8-27] 29.44 g
